Hello, the source for this data is paper PMC10258794, in case you need it.

Listed here: items and their measured MIC K. pneumoniae NCTC418.
System: K. pneumoniae NCTC418
experimental-parameters: MH broth pH 7.4, 16–20 h, 37 °C
Hi! Could you send only the number? It should be in µg/mL, unit omitted.

Record excerpt, results attached:
| chemical-string | MIC K. pneumoniae NCTC418, µg/mL |
| --- | --- |
| CC(C)C[C@H](NC(=O)[C@H](CC(C)C)NC(=O)[C@H](CC(C)C)NC(=O)[C@H](CCCCN)NC(=O)[C@H](CC(C)C)NC(=O)[C@H](CC(C)C)NC(=O)[C@H](CCCCN)NC(=O)[C@@H](CC(C)C)NC(=O)[C@H](CC(C)C)NC(=O)[C@@H](CCCCN)NC(=O)[C@@H](N)CCCCN)C(N)=O | 2 |
| CC(C)C[C@H](NC(=O)[C@H](CC(C)C)NC(=O)[C@H](CC(C)C)NC(=O)[C@H](CCCCN)NC(=O)[C@@H](CC(C)C)NC(=O)[C@@H](CC(C)C)NC(=O)[C@H](CCCCN)NC(=O)[C@H](CC(C)C)NC(=O)[C@H](CC(C)C)NC(=O)[C@H](CCCCN)NC(=O)[C@@H](N)CCCCN)C(N)=O | 64 |

Alright, here's another compound for you.
So for `CC(C)C[C@H](NC(=O)[C@H](CCCCN)NC(=O)[C@H](N)CCCCN)C(=O)N[C@@H](CC(C)C)C(=O)N[C@@H](CCCCN)C(=O)N[C@@H](CC(C)C)C(=O)N[C@@H](CC(C)C)C(=O)N[C@@H](CCCCN)C(=O)N[C@@H](CC(C)C)C(=O)N[C@@H](CC(C)C)C(=O)N[C@H](CC(C)C)C(N)=O` , the logged MIC K. pneumoniae NCTC418 turned out to be 2
